# ASSAY_NAME: AUC in rat at 10 mg/kg, po
# Format: ADME, organism-based
# Parameters: dose 10 mg/kg, route oral
# CONDITION: plasma
ATTRIBUTE_MEASURED: AUC (µM·h)

# ITEM_SMILES, ATTRIBUTE_MEASURED, U, QUANTITATIVE_READOUT
measured = [
    ("CN(C)C(=O)C(=O)N(C)[C@H]1CCCn2c1nc(C(=O)NCc1ccc(F)cc1)c(O)c2=O", "AUC", "µM·h", 3.8),
]

---

# ASSAY_NAME: AUC in rat at 3 mg/kg, po
# Type: ADME, organism-based
# Parameters: dose 3 mg/kg, route oral
# CONDITION: plasma
ATTRIBUTE_MEASURED: AUC

# ITEM_SMILES, RESULT
measured = [
    ("CN(C)C(=O)C(=O)N(C)[C@H]1CCCn2c1nc(C(=O)NCc1ccc(F)cc1)c(O)c2=O", "2.5 µM·h"),
]

Reference source for all entries: ChEMBL document CHEMBL1143246
